B1: TRIM43 (parent)
chain: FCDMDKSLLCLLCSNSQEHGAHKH

Variants of: B1
assay.info: protein stability index of a GFP-peptide fusion (GPS, HEK-293T) (PSI 1-6); higher = more stable;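 note: lentivirally expressed fusions sorted by FACS into six bins by GFP to DsRed ratio, PSI derived from sequencing read proportions per bin multiplied by bin number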
condition.label: c terminus: a fixed tail appended
measured.endpoint: protein stability index

    variant_name  result
 0          Q17S    1.55
 1          C10F    2.58
 2          N15I    2.49
 3          Q17R     1.6
 4           K6V    1.74
 5           L8H    2.54
 6           D5P    2.29
 7          L12E    2.55
 8          E18W    1.98
 9          A21W    1.54
10          A21V    1.85
11          Q17A    1.85
12           C2W    2.38
13           S7H    2.22
14           C2L    2.21
15          H19S    2.01
16          L12K    2.12
17           L8E     3.8
18           K6W    2.04
19          H19Q    1.41
20           C2G    1.77
21          H24F    1.43
22           F1N    3.57
23          C10M    2.15
24           M4L    1.98
25          K23C    1.82
26           L8I    1.96
27           F1E    4.17
28          Q17I    1.78
29          C10L    2.14
30          K23R    2.18
31          H19P    2.05
32           C2I     1.8
33           S7R    1.65
34          G20M    1.47
35          K23V    2.06
36          C10T    1.72
37           C2V    1.86
38          S14H    1.87
39          E18F    1.75
40          A21Q    2.23
41           F1I    2.81
42           L8F     2.5
43          K23H    2.13
44           F1G    3.49
45           M4H     3.6
46           D3H    2.35
47           F1Y    1.88
48          C13H    1.88
49          N15V    1.89
50          C13T    1.83
51           D3P    1.67
52          H24K    1.89
53          H19E    1.98
54          H22S    1.73
55           M4D    2.86
56           L9Q    2.68
57           L9H    1.93
58          K23W    1.94
59          C13R    2.13
60          C10V    1.86
61          S14P    1.98
62          C13E    2.13
63           L8W     2.3
64          C13W    2.72
65           M4V    2.11
66           S7V    1.79
67           K6F    2.24
68           D3C    2.26
69           C2R    2.84
70          Q17C    2.22
71           M4C    3.14
72          E18A    2.12
73           L8K    2.86
74           K6L    1.97
75          E18Q    1.93
76          K23Q    1.64
77           S7C    2.26
78          C13Q    2.53
79           C2M    2.31
80          L12A    1.92
81           K6I    2.04
82           L8N    2.81
83           L9K    2.61
84          E18G    1.78
85          C13N    1.87

Source: the supplement of paper PMC10567573
